The entries below are paired with their reported Inhibition (%).
system: Mycobacterium tuberculosis H37Rv (ATCC 27294); assay: Primary screen, Microplate Alamar Blue Assay (MABA), percent inhibition; format: cell-based; conditions: Table 3; primary screening at 6.25 μg/ml, H37Rv
Endpoint: Inhibition (%)

- CC(=O)O[C@H]1CC2C(C3CC[C@H](C(C)CCC(N)=O)[C@]31C)[C@H](OC(C)=O)C[C@@H]1CC3(CC[C@]21C)OOC1(CCC(c2ccccc2)CC1)OO3 (single isomer, unassigned): 87%
- CCNC(=O)CCC(C)[C@H]1CCC2C3C(C[C@H](OC(C)=O)[C@@]21C)[C@@]1(C)CCC2(C[C@H]1C[C@H]3OC(C)=O)OOC1(CCC(c3ccccc3)CC1)OO2 (single isomer, unassigned): 62%
- CCCNC(=O)CCC(C)[C@H]1CCC2C3C(C[C@H](OC(C)=O)[C@@]21C)[C@@]1(C)CCC2(C[C@H]1C[C@H]3OC(C)=O)OOC1(CCC(c3ccccc3)CC1)OO2 (single isomer, unassigned): 59%
- CC(=O)O[C@H]1CC2C(C3CC[C@H](C(C)CCC(=O)O)[C@]31C)[C@H](OC(C)=O)C[C@@H]1CC3(CC[C@]21C)OOC1(CCC(c2ccccc2)CC1)OO3 (single isomer, unassigned): 89%
- COC(=O)CCC(C)[C@H]1CCC2C3C(C[C@H](OC(C)=O)[C@@]21C)[C@@]1(C)CCC2(C[C@H]1C[C@H]3OC(C)=O)OOC1(CCC(c3ccccc3)CC1)OO2 (single isomer, unassigned) [Compound 1B14b]: 46%
- CNC(=O)CCC(C)[C@H]1CCC2C3C(C[C@H](OC(C)=O)[C@@]21C)[C@@]1(C)CCC2(C[C@H]1C[C@H]3OC(C)=O)OOC1(CCC(c3ccccc3)CC1)OO2 (single isomer, unassigned): 61%

The reported measurements were obtained from patent US6906098B2.
